Test system: Aspergillus fumigatus
experimentalDetails: Antifungal activity against Aspergillus fumigatus 231 after 24 hrs by broth microdilution method
Assay type: functional
assaySetup: Aspergillus fumigatus, 231, 24 h
propertyName: MIC

Example results:
>  <compound>
COc1ccc(CSc2nnc(-c3cc([N+](=O)[O-])cc([N+](=O)[O-])c3)o2)cc1

>  <MIC>
> 500 µM

$$$$
>  <compound>
O=[N+]([O-])c1cc(-n2nnnc2SCc2ccc(Cl)cc2)cc([N+](=O)[O-])c1

>  <MIC>
> 500 µM

$$$$
>  <compound>
OC(Cn1cncn1)(Cn1cncn1)c1ccc(F)cc1F [FLUCONAZOLE]

>  <MIC>
> 500 µM

$$$$
>  <compound>
C[C@@H]1[C@H](O)[C@@H](C)/C=C/C=C/C=C/C=C/C=C/C=C/C=C/[C@H](O[C@@H]2O[C@H](C)[C@@H](O)[C@H](N)[C@@H]2O)C[C@@H]2O[C@](O)(C[C@@H](O)C[C@@H](O)[C@H](O)CC[C@@H](O)C[C@@H](O)CC(=O)O[C@H]1C)C[C@H](O)[C@H]2C(=O)O [AMPHOTERICIN B]

>  <MIC>
0.54 µM

$$$$
>  <compound>
O=[N+]([O-])c1cc(-c2nnc(SCc3ccccc3Cl)o2)cc([N+](=O)[O-])c1

>  <MIC>
> 500 µM

$$$$
>  <compound>
O=[N+]([O-])c1cc(-c2nnc(SCc3ccc(Cl)cc3)o2)cc([N+](=O)[O-])c1

>  <MIC>
> 125 µM

$$$$
>  <compound>
O=[N+]([O-])c1cc(-c2nnc(SCc3ccc(Cl)c(Cl)c3)o2)cc([N+](=O)[O-])c1

>  <MIC>
> 125 µM

$$$$
>  <compound>
O=[N+]([O-])c1cc(-c2nnc(SCc3ccc(Br)cc3)o2)cc([N+](=O)[O-])c1

>  <MIC>
> 125 µM

$$$$

Consider the record given below.
Ask: Any idea what MIC was measured for `O=[N+]([O-])c1cc(-n2nnnc2SCc2ccc(Cl)c(Cl)c2)cc([N+](=O)[O-])c1` ?
Reply: > 500 µM

====

System: Mycobacterium avium
experimentalDetails: Antimycobacterial activity against Mycobacterium avium CNCTC My 330/88 after 21 days by micromethod
Assay type: functional
assaySetup: CNCTC My 330/88, 504 h
Form field: MIC (one value per entry).
Kindly answer with a numeric value in µM, unit omitted.

Use the examples below as a reference point.
>  <compound>
COc1ccc(CSc2nnc(-c3cc([N+](=O)[O-])cc([N+](=O)[O-])c3)o2)cc1

>  <targetUnderTest>
Mycobacterium avium

>  <MIC (µM)>
4

$$$$
>  <compound>
O=[N+]([O-])c1cc(-c2nnc(SCc3ccccc3Cl)o2)cc([N+](=O)[O-])c1

>  <targetUnderTest>
Mycobacterium avium

>  <MIC (µM)>
8

$$$$
>  <compound>
CC(=O)Oc1cc(-c2nnc(SCc3ccc(Cl)c(Cl)c3)o2)cc([N+](=O)[O-])c1

>  <targetUnderTest>
Mycobacterium avium

>  <MIC (µM)>
1000

$$$$

# next molecule below
Ask: Could you tell me which MIC is on file for `Nc1cc(-c2nnc(SCc3ccc(Cl)cc3)o2)cc([N+](=O)[O-])c1` ?
Reply: 250
